ASSAY_INFO: folding stability dG unfold from trypsin proteolysis; higher = more stable
Answer each item with its documented folding stability dG unfold.
Quick note: give the figure in kJ/mol, leave out the unit.

Request: Bench note: what folding stability dG unfold did SAGGPKTIMAMIPRDSPELRKALKWLEKAPPGEEVELKLPGKPIRITNIQPVDDWWMFSVKIPPGLKSAGGS [r16_404_TrROS] show?
Result: 6.35

Request: Bench note: what folding stability dG unfold did SAGGSAGGSAGMKIKFPNGKVVEIHMDEDSGNIEIEFPDGKKKEINIPGMSIDDILDYLKSAGGSAGGSAGG [r11_729_TrROS] show?
Result: 6.52

Request: Bench note: what folding stability dG unfold did SAGGSAGGSRIIFRIPPEFRENMPIEEIVEEFLPPGMPVEIEWERTPDPWYVTVDIEIPPGQLSAGGSAGGS [r12_716_TrROS] show?
Result: 1.52

Request: Bench note: what folding stability dG unfold did SAGGPPPKWVKIDIFIFIYNPDNGRPIFIRITSIEIRLDENNELDVEIEFEVFDPNGKPVKYTMTFKSAGGS [r16_200_TrROS] show?
Result: 15.9

Request: Bench note: what folding stability dG unfold did SAGGEIEILLEDGTLLRIRVELDEDGNLRVTVELFRLEPPPAPEVVVERREEREERRVLFADSAEDLSAGGS [r16_802_TrROS_Hall] show?
Result: 3.94

Request: Bench note: what folding stability dG unfold did SMSVVVPPDEGLTVTLTTLPGGTIEIHVGDTVLTRDVAPGETLTVTVPPDRTGNTVTVVGPGGVVVTSSGSA [r9_143_JUSTAS] show?
Result: 4.95

Request: Bench note: what folding stability dG unfold did SAGGSAMTVTYTPSTKTITITDPSNGKPVKVTVTEEKPVVPGKNVYELTVTVPDTGGEKKILITLPSAGGSA [r15_209_JUSTAS] show?
Result: 3.55

Request: Bench note: what folding stability dG unfold did SAGGSGLRVGDVVEAEGVVVPDPETRLRRAVFRFPDFVVVEVVEVPEDVAPDEEIPFPVRIDAIVPSAGGSA [r2_113_TrMRF] show?
Result: -2.14

Request: Bench note: what folding stability dG unfold did SAGGSAGGSNWYQFTIPFPIPPDEPVEIKLPDGWEIHEIPPNSGRITIYMPMNNMDAIKEAIGSAGGSAGGS [r12_476_TrROS] show?
Result: 5.08

Request: Bench note: what folding stability dG unfold did SAGLKVRIRTKDGREIEIEVSEEEAERLVKELEDAGFTVERVEVEELEPEEEKEELEEEERELKEELEESAG [r5_645_TrROS_Hall] show?
Result: 13.7

Request: Bench note: what folding stability dG unfold did SAGGWRLRIHIENPGNGRWITHTFPMPPGNIEKIADDMLEMLPGWKITGVEIVYEPGWITITARVKPKSAGG [r13_196_TrROS] show?
Result: 9.42

Request: Bench note: what folding stability dG unfold did SAGGSVTTETDEYFYPDNLFTVAKTTLYVGSGPVEATAVSYPTFTLVNVHYPDGSVDTFLFTLTDDSSAGGS [r16_108_TrMRF] show?
Result: 9.94

Request: Bench note: what folding stability dG unfold did SAGMKLELLLPAEEAVRLFGPDFDARDLARALASEGYVVESVEAEPFPNPEEGGLYLRVTFDVRPPDASAGG [r19_376_TrMRF] show?
Result: 5.73

Request: Bench note: what folding stability dG unfold did SAGGMLTLTDPETGVPYTGTPVSTTTTTVVLTTPDGTPVETVTVTVTTYEFTAPDGTPVTLTETTGLSAGGS [r8_214_JUSTAS] show?
Result: 7.32

----------
Answer each item with its documented folding stability dG unfold.
ASSAY_INFO: folding stability dG unfold from trypsin proteolysis; higher = more stable
Quick note: give the figure in kcal/mol, leave out the unit.

Request: Bench note: what folding stability dG unfold did SAGGSAGGSSYTTSTATDPNADVTTTTTTYPDSIVTPVWDPRTGKVVETVTTTPDGTTTTVAASAGGSAGGS [r12_563_JUSTAS] show?
Result: 0.543

Request: Bench note: what folding stability dG unfold did SAGGSAGGSAGMVFLDPETRLLLVVHPNGEPELVLLEDGRAVLFHPSTGERREIPLAEIGSAGGSAGGSAGG [r11_297_TrMRF] show?
Result: -0.195

Request: Bench note: what folding stability dG unfold did SAGGSIEELAEELARRFAEENGAAEVRVEVEGLPDNTVLVRVYVRGPDGELLGVVDALIPVPEDELSAGGSA [r2_153_TrMRF] show?
Result: 1.94

Request: Bench note: what folding stability dG unfold did MVAVFEFTFKSEEELLEAAEEVARRLAAELGLPEEELEKIPIEVEVEEIGNEDGEKEYKLTIRFGFPEEFLS [r1_81_TrMRF] show?
Result: 3.51

Request: Bench note: what folding stability dG unfold did SAGGSAGGSAGGMEVKTVEDPKGLTVEVSPPVGTATTVYGDETVTHTLSPSATVALEPASAGGSAGGSAGGS [r10_637_JUSTAS] show?
Result: -0.0233

Request: Bench note: what folding stability dG unfold did SAGGSAGGSAMRLEIELENGLKIEIELEVNEDGELKMKIKIEPLPPVPEVVVTKVVKLEEESAGGSAGGSAG [r3_15_TrROS_Hall] show?
Result: 1.72

Request: Bench note: what folding stability dG unfold did SAGGSSMEVEIDTSKSTTTYTHPSGEKVATRSLVLTPPSPGDPLRFLNVEFEKLPDGSVVVKKIVGSAGGSA [r2_362_JUSTAS] show?
Result: -0.338

----------
ASSAY_INFO: folding stability dG unfold (combined trypsin and chymotrypsin); higher = more stable
ASSAY_ENDPOINT: folding stability dG unfold (kcal/mol)
Quick note: give the figure in kcal/mol, leave out the unit.

Request: Bench note: what folding stability dG unfold did SAGGSAGGSAMSEEERRRRAEEERRKKPPVFKITEITVERDEDGNLRVTFRLEDGSTVTIELSAGGSAGGSA [r18_423_TrROS_Hall] show?
Result: 2.91

Request: Bench note: what folding stability dG unfold did SAGGSAGGSAGEMYKIKIFNKETGKELTLVFESEEEAKEALKKKFPNAKIEIEKISKEELSAGGSAGGSAGG [r11_978_TrROS_Hall] show?
Result: 2.8

Request: Bench note: what folding stability dG unfold did SPAAELARRLFEELGLEAELVSVDPERRRVTFRVRHPDRAPLLLEVVYDPERPVFAIALNPETGRAVVPVSA [r9_1119_TrMRF] show?
Result: 2.73

Request: Bench note: what folding stability dG unfold did SAGGSETLELTIEIPGLGQPVSARSTSFDPEKGLWTAEMKSPVPGLRRTLTYDPVTGTVSSTTTLLSAGGSA [r2_147_JUSTAS] show?
Result: 0.108

Request: Bench note: what folding stability dG unfold did SAGGSANVQVEQTGDGKIKIEFPWYGAEITLNPKKGDIEVEVLPNYKNGQPPPEDEVKNLAKEILDSAGGSA [r15_735_TrROS] show?
Result: 0.739

Request: Bench note: what folding stability dG unfold did SAGSIEAAVEALEKELREKGYKVSVELVETDPSDPNRLNLVIRVTVEGFSPESKPLGKKEETYVIEGGSAGG [r19_418_JUSTAS] show?
Result: 1.28

----------
ASSAY_INFO: folding stability dG unfold (combined trypsin and chymotrypsin); higher = more stable
ASSAY_ENDPOINT: folding stability dG unfold (kJ/mol)
Quick note: give the figure in kJ/mol, leave out the unit.

Request: Bench note: what folding stability dG unfold did SAGGSAGGSAGMEITRDKTPDGVWTVTITVPRPDGPSITVTVTGSPDGDFAPEKIAAVLASAGGSAGGSAGG [r11_759_JUSTAS] show?
Result: 3.42

Request: Bench note: what folding stability dG unfold did SAGGSAVTVVTVELTSPGSTHTITIPASEVEGLSLEEIEARLKALPEVSEITLTRSELPPLNPSLASAGGSA [r2_282_JUSTAS] show?
Result: 3.36

Request: Bench note: what folding stability dG unfold did SGKVKVKVEIPIPFRPPDGKWMMMNIWVEAEVPVTPEDLNNGKPRIRPEALDEAKDKVREWMRDIFGEPISA [r9_629_TrROS] show?
Result: 6.07

Request: Bench note: what folding stability dG unfold did SAGGGSSSTTTSTTTTTSTSIEPLPGDREVVVTTTTTTTTTTTTTTPPDGSSTSTTTTTTTTTTTVTLASAG [r5_428_JUSTAS] show?
Result: 8.06

Request: Bench note: what folding stability dG unfold did SAGGSAGGSKGVKELVIVVPPDKPEKIEEFLKKLRDEYAKDIKVLEVKETPDGGYIAKIKITDSAGGSAGGS [r12_91_TrMRF] show?
Result: 7.75

Request: Bench note: what folding stability dG unfold did SAGGSAGGSAGVRDPDNGEPMPPGDWVIRHRDNEKPHHFLIPPNNAEEFAEDNGIEIHKVSAGGSAGGSAGG [r17_109_TrROS] show?
Result: 5.54

Request: Bench note: what folding stability dG unfold did SAGGSAGGSAGGMEIIEKEETLDEETLKKLEEEGVPKSEATVKVTEVIYKEEYPEEGLKSAGGSAGGSAGGS [r10_1149_JUSTAS] show?
Result: -0.574

Request: Bench note: what folding stability dG unfold did SAGMTIEVEYTFPPGNPEEAEKRAEEIAEELKPKPLPNITIEISREPVVDPNSDATTTRYTFTITAEPKSAG [r5_49_JUSTAS] show?
Result: 4.25

Request: Bench note: what folding stability dG unfold did SAGGSAGGSAGGKTYTADEIKKIKKINGKWYVEIDGKTYEIPAKDIKIKKGDKIKIYPVSAGGSAGGSAGGS [r10_665_TrROS_Hall] show?
Result: 6.56

Request: Bench note: what folding stability dG unfold did SAGMITISEEEARELGVPIGASEEEIKEALAARLREEGYKVEFPSVVKEKVDPKTGKVEYKIDINLKPLSAG [r5_23_JUSTAS] show?
Result: 3.38

Request: Bench note: what folding stability dG unfold did SAGEWYRMSITFDLDPDNRDQLEKIAEKIREKDGFDKIEPVEHDPSNGRVTINVYMPPEAQDKIQEALRSAG [r5_193_TrROS] show?
Result: 5.32

Request: Bench note: what folding stability dG unfold did SAMYEPAEFSFTLPNGEKIHITAPKNPNTDEPIVSITIYRKLPDGNTVSFTITVKSSDIDEIIEKLGIKSAG [r14_416_TrMRF] show?
Result: 15.3

Request: Bench note: what folding stability dG unfold did SMGSITITLPATPEELRELLREKGISPELAPSWEEVKEALKKAFPKNVTVTINPKSPVSEEAAKAAREGSSA [r9_74_JUSTAS] show?
Result: 4.75

// provenance: the supplement of paper PMC12764529
